# subject-of-test: T1, biotinylated V112E-PNT domain (ETV6 residues 43-135, V112E, with Avitag) (human, UniProt P41212 43-135, V112E, biotin on the Avitag (~50 to 95% biotinylated))
# T1 construct: ETV6, human, residues 43-135 of V112E ETV6; also called biotinylated V112E-PNT domain ligand; V112E-PNT domain ligand; source: E. coli BL21 (λDE3) co-transformed with pET21a-BirA, purified (Ni-NTA, thrombin cleavage); not shown: His6, N-terminal, cleaved; Avitag, N-terminal, kept
# T1 sequence (looked up): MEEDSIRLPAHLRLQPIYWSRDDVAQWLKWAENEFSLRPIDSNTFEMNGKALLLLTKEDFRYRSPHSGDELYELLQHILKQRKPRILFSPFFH
# protocol-notes: SPR; biotinylated V112E-PNT domain ligand captured on streptavidin Sensor Chip SA, PNT domain analytes flowed; Biacore X100, 25 °C, HBS-EP+ (10 mM HEPES, 150 mM NaCl, 3 mM EDTA, 0.05% v/v Tween-20, pH 7.4); analyte 0.2-60 nM, re-run at 20-6000 nM if KD > 60 nM
# condition-notes: both partners purified
Entry flag: label 1 if kon reaches 300000 M⁻¹ s⁻¹; label 0 if it does not.

V112A-A93D-PNT domain (domain or fragment, human, UniProt P41212 40-125, looked up, ETV6 PNT domain, human; source: E. coli BL21 (λDE3), purified (Ni-NTA, thrombin cleavage); not shown: His6, N-terminal, cleaved) ALRMEEDSIRLPAHLRLQPIYWSRDDVAQWLKWAENEFSLRPIDSNTFEMNGKDLLLLTKEDFRYRSPHSGDALYELLQHILKQRK | label 0
D111A-A93D-PNT domain (domain or fragment, human, UniProt P41212 40-125, looked up, ETV6 PNT domain, human; source: E. coli BL21 (λDE3), purified (Ni-NTA, thrombin cleavage); not shown: His6, N-terminal, cleaved) ALRMEEDSIRLPAHLRLQPIYWSRDDVAQWLKWAENEFSLRPIDSNTFEMNGKDLLLLTKEDFRYRSPHSGAVLYELLQHILKQRK | label 0
I48A-A93D-PNT domain (domain or fragment, human, UniProt P41212 40-125, looked up, ETV6 PNT domain, human; source: E. coli BL21 (λDE3), purified (Ni-NTA, thrombin cleavage); not shown: His6, N-terminal, cleaved) ALRMEEDSARLPAHLRLQPIYWSRDDVAQWLKWAENEFSLRPIDSNTFEMNGKDLLLLTKEDFRYRSPHSGDVLYELLQHILKQRK | label 1
H119A-A93D-PNT domain (domain or fragment, human, UniProt P41212 40-125, looked up, ETV6 PNT domain, human; source: E. coli BL21 (λDE3), purified (Ni-NTA, thrombin cleavage); not shown: His6, N-terminal, cleaved) ALRMEEDSIRLPAHLRLQPIYWSRDDVAQWLKWAENEFSLRPIDSNTFEMNGKDLLLLTKEDFRYRSPHSGDVLYELLQAILKQRK | label 0

Query :: Is it the case that S78A-A93D-PNT domain (domain or fragment, human, UniProt P41212 40-125, looked up, ETV6 PNT domain, human; source: E. coli BL21 (λDE3), purified (Ni-NTA, thrombin cleavage); not shown: His6, N-terminal, cleaved) ALRMEEDSIRLPAHLRLQPIYWSRDDVAQWLKWAENEFALRPIDSNTFEMNGKDLLLLTKEDFRYRSPHSGDVLYELLQHILKQRK has kon reaching or exceeding 300000 M⁻¹ s⁻¹?
Result :: label 1

Reference source for all entries: paper PMC7949025
